Would you mind telling me the reported IC50 of each entry?
- subject of test: mutEGFR (D770_N771insNPG, T790)
- Sequence (P00533 with tags, fused parts or gaps INS770NPG limits assumed): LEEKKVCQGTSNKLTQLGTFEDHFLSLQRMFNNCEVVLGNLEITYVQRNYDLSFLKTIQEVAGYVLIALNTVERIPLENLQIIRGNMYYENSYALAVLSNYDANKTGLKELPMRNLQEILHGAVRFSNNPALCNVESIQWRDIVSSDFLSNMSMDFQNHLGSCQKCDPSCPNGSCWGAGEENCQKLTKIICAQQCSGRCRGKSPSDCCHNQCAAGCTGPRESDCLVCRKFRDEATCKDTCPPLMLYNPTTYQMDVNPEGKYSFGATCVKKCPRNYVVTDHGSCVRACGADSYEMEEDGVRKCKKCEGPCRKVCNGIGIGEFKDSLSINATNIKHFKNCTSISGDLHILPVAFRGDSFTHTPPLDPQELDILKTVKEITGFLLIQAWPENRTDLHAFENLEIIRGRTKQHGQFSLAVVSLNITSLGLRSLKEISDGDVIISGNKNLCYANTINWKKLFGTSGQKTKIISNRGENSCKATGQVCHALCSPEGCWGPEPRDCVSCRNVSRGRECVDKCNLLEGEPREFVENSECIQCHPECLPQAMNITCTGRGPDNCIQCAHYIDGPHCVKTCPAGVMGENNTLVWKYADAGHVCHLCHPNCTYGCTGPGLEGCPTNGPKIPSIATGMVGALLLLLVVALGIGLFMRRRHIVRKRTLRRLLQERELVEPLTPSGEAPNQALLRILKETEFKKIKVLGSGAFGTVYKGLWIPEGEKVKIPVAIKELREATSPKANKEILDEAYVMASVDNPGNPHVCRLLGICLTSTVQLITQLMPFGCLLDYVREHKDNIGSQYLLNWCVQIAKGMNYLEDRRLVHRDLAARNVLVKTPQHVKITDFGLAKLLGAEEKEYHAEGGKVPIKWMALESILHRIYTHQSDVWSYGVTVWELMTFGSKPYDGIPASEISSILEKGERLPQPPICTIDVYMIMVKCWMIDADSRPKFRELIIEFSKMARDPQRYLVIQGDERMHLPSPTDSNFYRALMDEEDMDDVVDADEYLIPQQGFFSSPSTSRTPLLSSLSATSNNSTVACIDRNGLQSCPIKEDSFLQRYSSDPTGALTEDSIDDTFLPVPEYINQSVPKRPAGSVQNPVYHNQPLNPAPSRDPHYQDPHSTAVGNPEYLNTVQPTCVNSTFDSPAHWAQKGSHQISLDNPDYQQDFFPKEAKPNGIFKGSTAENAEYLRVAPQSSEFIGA
- measurement protocol: mutEGFR (D770_N771insNPG, T790) kinase assay
- Type: biochemical, human

GET /value?item= CN(C)C/C=C/C(=O)N1CCOCC1COc1cnccc1-c1[nH]c2cccnc2c1-c1ccccc1 (centres unmarked) &field=IC50 returns > 20000 nM

GET /value?item= "C=CC(=O)N1CCC[C@H]1COc1cnccc1-c1[nH]c2cccnc2c1-c1ccc(F)c(OC(F)(F)F)c1" &field=IC50 returns 77.4 nM

GET /value?item= "CC#CC(=O)N(C)CCOc1cnccc1-c1[nH]c2cccnc2c1-c1ccccc1" &field=IC50 returns > 20000 nM

GET /value?item= "C=CC(=O)N1CCC[C@H]1COc1cnccc1-c1[nH]c2cccnc2c1-c1cc(C)ccc1F" &field=IC50 returns 1.97 nM

GET /value?item= "CN(C)C/C=C/C(=O)N1CCC[C@H]1COc1cnccc1-c1[nH]c2cccnc2c1-c1ccc(F)c(OC(F)F)c1" &field=IC50 returns 149 nM

GET /value?item= "C=CC(=O)N1CCC[C@H]1COc1cncc(F)c1-c1[nH]c2cccnc2c1-c1cc(Cl)ccc1F" &field=IC50 returns 92.6 nM

GET /value?item= "C=CS(=O)(=O)N(C)CCOc1cnccc1-c1[nH]c2cccnc2c1-c1cccc(C(C)C)c1" &field=IC50 returns 46.6 nM

GET /value?item= "CN(C)C/C=C/C(=O)N1CCC[C@H]1COc1cnccc1-c1[nH]c2cccnc2c1-c1cc(Cl)ccc1F" &field=IC50 returns 8.62 nM

GET /value?item= "C=CS(=O)(=O)N1CCC[C@H]1COc1cnccc1-c1[nH]c2cccnc2c1-c1cccc(C(F)(F)F)c1" &field=IC50 returns 1.05 nM

GET /value?item= "C=CC(=O)N1C[C@@H](C)C[C@H]1COc1cnccc1-c1[nH]c2cccnc2c1-c1ccccc1" &field=IC50 returns 5.97 nM

GET /value?item= "C=CS(=O)(=O)N(C)CCOc1cnccc1-c1[nH]c2cccnc2c1-c1cc(Cl)ccc1F" &field=IC50 returns 2.02 nM

GET /value?item= "C=CS(=O)(=O)N1CCC[C@H]1COc1cnccc1-c1[nH]c2cccnc2c1-c1ccc(F)c(OC(F)F)c1" &field=IC50 returns 0.537 nM

GET /value?item= "C=CC(=O)N(C)CCOc1cnccc1-c1[nH]c2cccnc2c1-c1ccc(Cl)c(CC)c1" &field=IC50 returns 779 nM

GET /value?item= "C=CC(=O)N(C)CCOc1cnccc1-c1[nH]c2cccnc2c1-c1cccc(OC)c1" &field=IC50 returns 240 nM

GET /value?item= "C=CC(=O)N(C)CCOc1cnccc1-c1[nH]c2cccnc2c1-c1ccc2ccsc2c1" &field=IC50 returns 64 nM

GET /value?item= "C=CC(=O)N1CCC[C@H]1COc1cnccc1-c1[nH]c2cccnc2c1-c1cccc(F)c1F" &field=IC50 returns 3.99 nM

GET /value?item= "C=CS(=O)(=O)N(C)CCOc1cnccc1-c1[nH]c2cccnc2c1-c1cccc(C(F)(F)F)c1" &field=IC50 returns 6.66 nM

GET /value?item= "C=CS(=O)(=O)N(C)CCOc1cnccc1-c1[nH]c2cccnc2c1-c1cccc(CC)c1" &field=IC50 returns 5.88 nM

GET /value?item= C#CC(=O)N1CCC(Oc2cnccc2-c2[nH]c3cccnc3c2-c2ccccc2)C1 (racemic) &field=IC50 returns 296 nM

GET /value?item= "C=CS(=O)(=O)N(C)CCOc1cnccc1-c1[nH]c2cccnc2c1-c1cc(C)cc(F)c1" &field=IC50 returns 7.22 nM

GET /value?item= "C=CC(=O)N(C)CCOc1cnccc1-c1[nH]c2cccnc2c1-c1ccccc1" &field=IC50 returns 17.1 nM

GET /value?item= "C=CC(=O)N(C)CCOc1cnccc1-c1[nH]c2cccnc2c1-c1ccc(Cl)cc1" &field=IC50 returns 46.2 nM

GET /value?item= "C=CS(=O)(=O)N(C)CCOc1cnccc1-c1[nH]c2cccnc2c1-c1cc(Cl)cc(Cl)c1" &field=IC50 returns 26.1 nM

GET /value?item= "C=CC(=O)N1CCC[C@H]1COc1cnccc1-c1[nH]c2cccnc2c1-c1cccc(C(F)(F)F)c1" &field=IC50 returns 5.22 nM

GET /value?item= "C=CC(=O)N(C)CCCOc1cnccc1-c1[nH]c2cccnc2c1-c1ccccc1" &field=IC50 returns 3410 nM

GET /value?item= "C=CC(=O)N(C)CCOc1cnccc1-c1[nH]c2cccnc2c1-c1cc(C(F)(F)F)ccc1F" &field=IC50 returns 132 nM
